# Experiment Summary: RPMI8226 myeloma cell viability, profiling panel, resazurin fluorescence, basal, 24 h, PK04 Diversity Set (AID 1180);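 also: RPMI8826 multiple myeloma cell line at 5000 cells per well; test concentration not given here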
# Cond: higher = more signal
Measure: z-score
The reply should be a number, written without any unit.

Below are worked cases with known answers.
Molecule	Measure	Test Value
O=C(N1CCCCC1)[C@]1(Cc2ccccc2)N=C(c2ccc(OCCCO)cc2)O[C@@H]1c1ccccc1	z-score	-3.93
C=CCOC(=O)[C@@H]1[C@H]2C(=O)O[C@H](c3ccccc3)[C@H](c3ccccc3)N2[C@H](c2ccc(OCCOC(=O)[C@H]3C[C@H]4C(=O)N5CCC[C@H]5C(=O)N4[C@H]3c3ccc(O)cc3)cc2)[C@@]12C(=O)Nc1ccc(I)cc12	z-score	-0.432
CCOC(=O)C[C@H]1[C@H](OC(=O)c2ccc(C(=O)c3ccccc3)cc2)[C@@H](NC(=O)c2ccccc2)c2cc(OCCCO)ccc2N1C(=O)Cc1ccc(OC)cc1	z-score	0.702
C=CCN1C(=O)[C@@]2(Cc3ccccc31)N=C(c1ccc(OCCCO)cc1)O[C@H]2c1ccccc1	z-score	-2.81

// sample NC(=O)N1C(=O)C2C(C1=O)C1C=C(c3ccc(CO)cc3)C2C(c2cccs2)N1Cc1cccc(OC(F)(F)F)c1 (centres undefined) , its z-score was -0.452

// sample CN(C)CCCC[C@@H]1NC(=O)[C@H]2C[C@@H](C(=O)NCCCCCCN)[C@@H](c3ccc(O)cc3)N2C1=O , its z-score was 0.683

// sample COc1cc(NN2C(C(O)c3ccco3)C=CC3C(=O)N(c4ccccc4)C(=O)C32)cc(OC)c1OC (centres undefined) , its z-score was -1.08

// sample COC(=O)[C@@]1(Cc2ccc(F)cc2)[C@H]2c3cc(C(=O)N(C)C)n(Cc4ccccc4)c3C[C@H]2CN1C(=O)c1ccccc1 , its z-score was -2.86

// sample C=CCN1C(=O)[C@]2(O[C@H](CCn3cc([C@H](O)c4ccccc4)nn3)[C@@H]([Si](C)(C)c3ccc(OC)cc3)[C@@H]2C)c2ccccc21 , its z-score was -1.69

// sample COC(=O)[C@@]1(Cc2ccc(OC)cc2)[C@H]2c3cc(C(=O)N4CCCC4)n(CCN4CNCC4=O)c3C[C@H]2CN1C(=O)c1ccccc1 , its z-score was 0.0221

// sample C=CCC(OC(C)=O)[C@@H]1[C@@H](N(Cc2cccc3ccccc23)C(=O)c2ccc(-c3ccccc3)cc2)c2cc(OCCCO)ccc2N1C(=O)c1ccc2ccccc2c1 (some centres undefined) , its z-score was 1.23
